System: SK-MEL-2 melanoma
Experiment: NCI-60 one-dose screen, 48 h (100 = growth as untreated, 0 = no growth, -100 = all killed)
Settings: 10 µM unless noted
About 83,000 compounds went through this panel and 20% of them were active in at least one assay; those are over-represented in the sample as a whole.
Measured growth of individual entries
Observable: growth (%)

[[record]]
compound = "C[C@H](NC(=O)[C@@H]1CSSC[C@@H](NC(=O)c2nc3ccccc3cc2O)C(=O)NCC(=O)N1C)c1ccccc1"
readout_value = 62.2

[[record]]
compound = "Cc1c(C(=O)OC(=NC2CCCCC2)NC2CCCCC2)sc2c1c(=O)nc1c(C#N)n[nH]n12"
readout_value = 93.6

[[record]]
compound = "COc1cc2ncn3c(=O)c4c5c(sc4nc3c2cc1OC)CCCC5"
readout_value = 91.4

[[record]]
compound = "O=C(Nc1cccc(Cl)c1)c1cc(N=Nc2ccc([N+](=O)[O-])cc2Cl)ccc1O"
readout_value = -26.6

[[record]]
compound = "Cc1ccc(-n2c(-c3ccccc3)c(-c3ccccc3)c3c(SCC(=O)n4[nH]c(N)cc4=O)ncnc32)cc1"
readout_value = 108

[[record]]
compound = "Cc1cc(C)c2c(-c3nnc(N)s3)cc(=O)oc2c1"
readout_value = 114

[[record]]
compound = "Fc1cnc(NC2CC2)nc1-c1cnc2ccc(N3CCOCC3)cn12"
readout_value = -34.1

[[record]]
compound = "Cc1nc2c(c(N3CCCc4ccccc43)n1)CCC2"
readout_value = 43.9

[[record]]
compound = "COC(=O)[C@]12CC[C@@H](C)[C@H](C)[C@@H]1C1=CC[C@@H]3[C@@]4(C)C(C=O)=C[C@@](C)(COC(C)=O)C4=CC[C@@]3(C)[C@]1(C)CC2"
readout_value = -45.1

[[record]]
compound = "CS(=O)c1cccc(-c2ccc3nc(N)n(-c4ccc(C(F)(F)F)cc4)c(=O)c3c2)c1 (stereo not given)"
readout_value = 98.2

[[record]]
compound = "COc1ccc(-c2nc(SCCC(C)C)nc(N/N=C\\c3ccccc3O)c2C#N)cc1"
readout_value = 103

[[record]]
compound = "O=[N+]([O-])c1ccc(N2c3ccncc3Sc3ccncc32)cc1"
readout_value = 93.8

[[record]]
compound = "CC(CN1CCCCC1)C(=O)c1ccccc1 (stereo not given)"
readout_value = 102

[[record]]
compound = "N/C(=N\\c1nc2ccccc2s1)NC(=O)Nc1cccc(Cl)c1"
readout_value = 28.9

[[record]]
compound = "CCOC(=O)c1c2ncccc2n2c(=O)n(-c3ccccc3C)nnc12"
readout_value = 107

[[record]]
compound = "COC(=O)c1c2c(c[n+]([O-])c1C)C(=O)C=CC2=O"
readout_value = 58.5

[[record]]
compound = "COc1cccc(C(=O)NCCNc2cc(-c3cn(-c4ccccc4)nc3-c3cccc(OC)c3)ccn2)c1"
readout_value = 57.2

[[record]]
compound = "CCOC(=O)c1c(-c2ccc(Cl)cc2)c(C#N)c(=O)n(-c2ccccc2CC)c1N"
readout_value = 114

[[record]]
compound = "COC(=O)[C@]12CC[C@@H](C)[C@H](C)[C@@H]1C1=CC[C@@H]3[C@@]4(C)C(C=O)=C[C@@](C)(COC(=O)/C=C/c5ccccc5)[C@@H]4[C@H](O)C[C@@]3(C)[C@]1(C)CC2"
readout_value = -23.5

[[record]]
compound = "Cc1ccc(-n2nc3c(c(C#N)c2=O)CC(c2ccccc2Cl)C([N+](=O)[O-])=C3O)cc1 (stereo not given)"
readout_value = 99.2

[[record]]
compound = "COc1cc(C2CC(=O)Nc3c2c(C)nn3-c2nc3ccccc3[nH]2)c(OC)c2c1OCO2 (stereo not given)"
readout_value = 80.7

[[record]]
compound = "CCN1C(=O)N(CC)C2Nn3c(s/c(=C\\c4ccc(Cl)cc4Cl)c3=O)=NC21 (stereo not given)"
readout_value = 71.2

[[record]]
compound = "Cn1c(=O)c2[nH]c(NN)nc2n(C)c1=O"
readout_value = 105

[[record]]
compound = "CC(=O)n1c(-c2ccc(Cl)cc2)nc2c(c1=O)C(c1ccc(Cl)cc1)c1sc3c(Cl)cccc3c1O2 (stereo not given)"
readout_value = 7.32

[[record]]
compound = "COc1ccc(-c2nc(SCCC(C)C)nc(N/N=C\\c3cccc(Cl)c3)c2C#N)cc1"
readout_value = 98.3

[[record]]
compound = "CC1O[C@@H](OC2[C@H](OC(=O)/C=C/c3ccc(O)c(O)c3)C(COC3O[C@H](C)C(O)C(O)[C@@H]3O)O[C@@H](OCCc3ccc(O)c(O)c3)[C@H]2O)[C@@H](O)C(O)[C@H]1O (stereo not given in full)"
readout_value = 99.6

[[record]]
compound = "COc1cc(CCC[P+](c2ccccc2)(c2ccccc2)c2ccccc2)cc2c1OCO2"
readout_value = 6.71

[[record]]
compound = "NC(=O)c1ccc[n+]([C@@H]2O[C@H](COP(=O)([O-])OP(=O)(O)OC[C@H]3O[C@@H](n4cnc5c(N)ncnc54)[C@H](O)[C@@H]3O)[C@@H](O)[C@H]2O)c1"
readout_value = 137

[[record]]
compound = "COc1cccc(-c2nn(-c3ccccc3)cc2-c2ccnc(NCCNC(=O)Nc3ccc(Cl)c(Cl)c3)c2)c1"
readout_value = -12.1

[[record]]
compound = "COC(=O)[C@]12CC[C@@H](C)[C@H](C)[C@@H]1C1=CC[C@@H]3[C@@]4(C)C(C=O)=C[C@@](C)(COC(C)=O)[C@@H]4C(=O)C[C@@]3(C)[C@]1(C)CC2"
readout_value = 43

[[record]]
compound = "CC1=C([Se]CC(OC(=O)[C@@H](CO)NC(=O)OC(C)(C)C)C(=O)NC(C)(C)C)C(=O)c2ccccc2C1=O (stereo not given in full)"
readout_value = -79.1

[[record]]
compound = "Cc1cccc(NC(=O)CSc2nc3ccccc3[nH]2)c1"
readout_value = 109

[[record]]
compound = "O=C(/C=C/c1ccco1)c1ccc(Nc2nc(Nc3ccc(F)cc3)nc(Nc3ccc(Cl)cc3)n2)cc1"
readout_value = 59.4

[[record]]
compound = "Fc1c[c-]c(-c2ccccn2)c(F)c1.[CH3-].[Pt+2].c1ccc(P(C[PH+](c2ccccc2)c2ccccc2)c2ccccc2)cc1"
readout_value = -39

[[record]]
compound = "O=C1CCc2c(sc3[nH]c(=S)n(-c4ccc(OC(F)(F)F)cc4)c(=O)c23)C1"
readout_value = 58.5

